# System: Yap1 mRNA
# assayRemarks: Yap1 mRNA in SCC25 cells, RNA analysis (Example 25)
# Assay type: cell-based, human
# conditionSet: 5 μM, free uptake, 48 hours, RTS4814, normalized to actin-beta

substance: 1198872 (TGTATGTCAGAAGAGT; chemically modified gapmer, further chemistry not given here) [compound 1198872]
Yap1 mRNA, % UTC: 7 % UTC
//
substance: 1197270 (TTAAAGTGTATGTCAG; cEt gapmer with 2'-OMe nucleoside, phosphorothioate, further chemistry not given here) [compound 1197270]
Yap1 mRNA, % UTC: 7 % UTC
//
substance: 1198728 (TATTAGAGTATGTGGC; modified gapmer, further chemistry not given here) [compound 1198728]
Yap1 mRNA, % UTC: 7 % UTC

###

# Tested on: Yap1 mRNA
# assayRemarks: Antisense inhibition of human Yap1 in SNU-449 cells by modified oligonucleotides, single dose (Example 5, RTS36584)
# Type: cell-based
# conditionSet: Table 39; SNU-449 cells, 10,000 cells per well, free uptake, 2,000 nM oligonucleotide, approx. 48 hours; RTS36584; normalized to RIBOGREEN; Yap1 mRNA relative to untreated control
Strand notation (5' to 3'): a small letter for the sugar, then the base; units joined by * are phosphorothioate-linked, units joined directly phosphodiester-linked; [ ] holds rarer units or linkages, { } end groups; capitals alone tell only the bases. e = 2'-O-(2-methoxyethyl) (MOE); k = constrained ethyl (cEt); [5mC] = 5-methylcytosine; d = 2'-deoxy (DNA)
measurementLabel: YAP1 (% UTC)

substance: 1198454 (kA*dG*dA*d[5mC]*dT*dA*dA*dG*dT*dA*dA*kG*eG*kT*eT*kT; antisense) [Compound 1198454]
observedValue: 39
--
substance: 1198377 (kA*dT*dG*dG*dA*dA*dA*dT*dT*dG*dT*k[5mC]*eT*k[5mC]*eA*kT; antisense) [Compound 1198377]
observedValue: 30
--
substance: 1198417 (k[5mC]*dA*dG*dA*dT*dT*dT*dA*dG*dG*dA*kT*eG*k[5mC]*eA*kT; antisense) [Compound 1198417]
observedValue: 40
--
substance: 1198385 (kA*dT*dA*dT*dT*dA*dG*dA*dG*dT*dA*kT*eG*kT*eG*kG; antisense) [Compound 1198385]
observedValue: 30

###

# Test system: Yap1 mRNA
# assayRemarks: Dose-dependent inhibition of human Yap1 in A-431 cells (Example 6, 5,000 cells per well, RTS4814)
# Assay type: cell-based
# conditionSet: Table 54; A-431 cells, free uptake, 444 nM, approximately 48 hours, RTS4814
# Description: Modified oligonucleotides described in the studies above were tested at various doses in A-431 cells. […] After approximately 48 hours, Yap1 mRNA levels were measured as previously described using the Human Yap1 primer-probe set RTS4814. Yap1 mRNA levels were normalized to total RNA content, as measured by RIBOGREEN®. […] IC50s were calculated using a linear regression on a log/linear plot of the data in excel.
Strand notation (5' to 3'): a small letter for the sugar, then the base; units joined by * are phosphorothioate-linked, units joined directly phosphodiester-linked; [ ] holds rarer units or linkages, { } end groups; capitals alone tell only the bases. k = constrained ethyl (cEt); [5mC] = 5-methylcytosine; d = 2'-deoxy (DNA)
% UTC 444 nM below 80 % UTC gives no; % UTC 444 nM at or above it gives yes.

substance: 716424 (antisense kG*k[5mC]*kA*dA*dT*dG*dG*dA*d[5mC]*dA*dA*dG*dG*kA*kA*kG) [compound 716424]
answerLabel: no

substance: 715471 (kT*kA*kT*d[5mC]*dT*dA*dG*d[5mC]*dT*dT*dG*dG*dT*kG*kG*k[5mC]; antisense) [compound 715471]
answerLabel: yes

substance: 716376 (k[5mC]*kG*kA*dA*dG*dA*dT*dG*d[5mC]*dT*dG*dA*dG*k[5mC]*kT*kG; antisense) [compound 716376]
answerLabel: yes

substance: 716505 (antisense kG*kA*kT*dT*dT*dA*dA*dT*d[5mC]*dT*dT*dT*d[5mC]*kT*kG*k[5mC]) [compound 716505]
answerLabel: yes

substance: 715478 (kA*k[5mC]*k[5mC]*dA*dT*dT*dA*dT*dT*dA*d[5mC]*dT*d[5mC]*k[5mC]*kT*kG; antisense) [compound 715478]
answerLabel: no

substance: 715558 (k[5mC]*kA*kG*dG*dA*dA*dG*dT*dT*dA*dT*dT*d[5mC]*kA*kG*k[5mC]; antisense) [compound 715558]
answerLabel: yes

substance: 716454 (antisense k[5mC]*kG*kA*dG*dA*dT*dT*dT*dA*dA*dA*dT*dA*kA*kG*kG) [compound 716454]
answerLabel: no

###

# Test system: Yap1 mRNA
# assayRemarks: Antisense inhibition of human Yap1 in A-431 cells by cEt gapmers, single dose (Example 4, RTS4814)
# Type: cell-based
# conditionSet: Table 17; A-431 cells, 5,000 cells per well, free uptake, 2,000 nM, approximately 48 hours; RTS4814; normalized to RIBOGREEN; Yap1 mRNA relative to untreated control cells
Marks after values point to notes of the source that are not given here. Strand notation (5' to 3'): a small letter for the sugar, then the base; units joined by * are phosphorothioate-linked, units joined directly phosphodiester-linked; [ ] holds rarer units or linkages, { } end groups; capitals alone tell only the bases. k = constrained ethyl (cEt); [5mC] = 5-methylcytosine; d = 2'-deoxy (DNA)
measurementLabel: YAP1 (% UTC)

substance: 1074979 (antisense kA*kT*kT*dG*d[5mC]*d[5mC]*dA*dG*dT*dT*d[5mC]*dT*dT*kG*kT*kT) [Compound 1074979]
experimentalSystem: Yap1 mRNA
measurementLabel: YAP1 (% UTC)
observedValue: 32 % UTC
--
substance: 1074115 (antisense kA*kG*kA*dA*d[5mC]*dT*dT*dT*dT*dT*d[5mC]*d[5mC]*d[5mC]*kT*k[5mC]*k[5mC]) [Compound 1074115]
experimentalSystem: Yap1 mRNA
measurementLabel: YAP1 (% UTC)
observedValue: 33 % UTC
--
substance: 1074819 (kA*kA*kG*d[5mC]*dA*d[5mC]*dT*dG*dA*dA*dT*dA*dT*kT*kG*k[5mC]; antisense) [Compound 1074819]
experimentalSystem: Yap1 mRNA
measurementLabel: YAP1 (% UTC)
observedValue: 33 % UTC
--
substance: 1074435 (kG*kA*k[5mC]*dT*dT*d[5mC]*dT*dA*dA*dG*dT*d[5mC]*dT*kG*kA*kG; antisense) [Compound 1074435]
experimentalSystem: Yap1 mRNA
measurementLabel: YAP1 (% UTC)
observedValue: 19* % UTC
--
substance: 1074563 (antisense kT*kG*kA*dA*dT*dT*d[5mC]*d[5mC]*dA*dA*dT*d[5mC]*dG*kA*kG*kA) [Compound 1074563]
experimentalSystem: Yap1 mRNA
measurementLabel: YAP1 (% UTC)
observedValue: 4 % UTC
--
substance: 1075619 (k[5mC]*kT*kT*dA*dG*dA*dT*dA*d[5mC]*dT*dA*d[5mC]*dT*kT*kT*kG; antisense) [Compound 1075619]
experimentalSystem: Yap1 mRNA
measurementLabel: YAP1 (% UTC)
observedValue: 54 % UTC
--
substance: 1074531 (k[5mC]*kA*k[5mC]*dT*dA*dA*dA*d[5mC]*dT*dA*d[5mC]*dT*dT*k[5mC]*kA*kA; antisense) [Compound 1074531]
experimentalSystem: Yap1 mRNA
measurementLabel: YAP1 (% UTC)
observedValue: 73 % UTC
--
substance: 1075107 (antisense kT*kA*kA*dA*dA*dA*d[5mC]*dA*dT*dT*dG*dT*dG*kG*k[5mC]*k[5mC]) [Compound 1075107]
experimentalSystem: Yap1 mRNA
measurementLabel: YAP1 (% UTC)
observedValue: 114 % UTC
--
substance: 1074723 (antisense kG*kG*kT*dA*dA*dA*dG*dG*dA*dA*dG*dA*dT*k[5mC]*kT*k[5mC]) [Compound 1074723]
experimentalSystem: Yap1 mRNA
measurementLabel: YAP1 (% UTC)
observedValue: 6 % UTC
--
substance: 1075235 (antisense kA*kG*kT*dA*dA*dA*dT*dA*d[5mC]*dT*d[5mC]*dT*dA*kG*kT*kT) [Compound 1075235]
experimentalSystem: Yap1 mRNA
measurementLabel: YAP1 (% UTC)
observedValue: 38 % UTC
--
substance: 1074851 (antisense kA*kT*kT*dG*dT*dT*dA*dT*dG*dA*dT*dA*dG*kG*k[5mC]*kA) [Compound 1074851]
experimentalSystem: Yap1 mRNA
measurementLabel: YAP1 (% UTC)
observedValue: 6 % UTC
--
substance: 1076387 (kT*kG*kA*d[5mC]*dA*dA*d[5mC]*dA*d[5mC]*dA*dG*dT*dT*kA*kT*kA; antisense) [Compound 1076387]
experimentalSystem: Yap1 mRNA
measurementLabel: YAP1 (% UTC)
observedValue: 13 % UTC
--
substance: 1075715 (kG*kA*kA*dT*dT*dA*d[5mC]*dA*dA*dT*d[5mC]*dA*dA*k[5mC]*k[5mC]*kT; antisense) [Compound 1075715]
experimentalSystem: Yap1 mRNA
measurementLabel: YAP1 (% UTC)
observedValue: 12 % UTC
